target-of-assay: DRB1*0101 (Homo sapiens, UniProt P01903+P01911, A100R/D57E/F55L/F60I/F76Y/I96L/L162R/M171V/P40L/Q125E/R42F/V115G/Y59C)
experimental-details: biochemical
observation-type: IC50 (nM)
Give the number; nM is assumed, so skip it.

>>> reported_result("CC[C@H](C)[C@H](NC(=O)[C@H](C)NC(=O)[C@H](CC(N)=O)NC(=O)[C@H](CO)NC(=O)[C@H](C)NC(=O)[C@H](CC(C)C)NC(=O)[C@H](CCCNC(=N)N)NC(=O)[C@H](CC(C)C)NC(=O)[C@H](CC(=O)O)NC(=O)[C@H](CCCNC(=N)N)NC(=O)[C@H](CCCNC(=N)N)NC(=O)[C@H](Cc1c[nH]cn1)NC(=O)[C@H](Cc1ccccc1)NC(=O)[C@H](Cc1ccc(O)cc1)NC(=O)[C@@H](N)CCSC)C(=O)O")
41

// next item, IC50 requested
// recorded IC50 for CC[C@H](C)[C@H](NC(=O)[C@H](CCCCN)NC(=O)[C@H](C)NC(=O)[C@H](CCCCN)NC(=O)CNC(=O)[C@H](Cc1c[nH]c2ccccc12)NC(=O)[C@@H](N)[C@@H](C)O)C(=O)N[C@H](C(=O)N[C@H](C(=O)N[C@@H](C)C(=O)N[C@@H](CCC(=O)O)C(=O)N[C@H](C(=O)N[C@@H](CCC(N)=O)C(=O)N[C@@H](CC(N)=O)C(=O)N[C@@H](CO)C(=O)O)[C@@H](C)O)[C@@H](C)O)C(C)C : 1090

Values were extracted from paper PMC3794980.
